Measured protein stability index values are reported for all entries that follow.
B1: STK38L (parent)
chain: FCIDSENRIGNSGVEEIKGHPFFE

Variants of: B1
Experiment Notes: protein stability index of a GFP-peptide fusion (GPS, HEK-293T) (PSI 1-6); higher = more stable;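 also: lentivirally expressed fusions sorted by FACS into six bins by GFP to DsRed ratio, PSI derived from sequencing read proportions per bin multiplied by bin number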
Cond: c terminus: a fixed tail appended
Outcome Measure: protein stability index

| Residue Sequence | Result Value |
| --- | --- |
| FCIDSENRIGNSGVEEIKGHAFFE [P21A] | 2.72 |
| FCIDSENRYGNSGVEEIKGHPFFE [I9Y] | 2.58 |
| FCIDSENRIGNSGVEAIKGHPFFE [E16A] | 3.21 |
| FCNDSENRIGNSGVEEIKGHPFFE [I3N] | 3.43 |
| FCIDSENRIGNSGVEEIFGHPFFE [K18F] | 2.12 |
| FCQDSENRIGNSGVEEIKGHPFFE [I3Q] | 3.06 |
| FCIDSERRIGNSGVEEIKGHPFFE [N7R] | 1.56 |
| FCIDSENRHGNSGVEEIKGHPFFE [I9H] | 2.9 |
| FCIDPENRIGNSGVEEIKGHPFFE [S5P] | 1.47 |
| FCIDSENRIGNSGNEEIKGHPFFE [V14N] | 2.8 |
| FCIDSENRIGNSGVEEISGHPFFE [K18S] | 3 |
| FCIDSENRIGNSGVEEIKHHPFFE [G19H] | 2.13 |
| FCIDSENRIGNSGVEEIKGHMFFE [P21M] | 1.94 |
| FCIDSENRINNSGVEEIKGHPFFE [G10N] | 3.64 |
| FCIDSENRIGFSGVEEIKGHPFFE [N11F] | 1.88 |
| FCIDSENRIGNSGVEEIKGHPFHE [F23H] | 2.69 |
| FCIDSENRIGNSGVEEHKGHPFFE [I17H] | 2.16 |
| FCIDSENRIGNSGVEEIKGHPFFL [E24L] | 4 |
| FCIDSHNRIGNSGVEEIKGHPFFE [E6H] | 2.16 |
| FCIDSENRIKNSGVEEIKGHPFFE [G10K] | 2.53 |
| FCIDSENRIGCSGVEEIKGHPFFE [N11C] | 2.3 |
| HCIDSENRIGNSGVEEIKGHPFFE [F1H] | 4.55 |
| FCIDSENRIGNSGVKEIKGHPFFE [E15K] | 2.22 |
| FCIDSENRRGNSGVEEIKGHPFFE [I9R] | 2.71 |
| FCIDSENRIGNDGVEEIKGHPFFE [S12D] | 2.32 |
| FCIDSENRIGNSGVEDIKGHPFFE [E16D] | 1.89 |
| FCIDSENQIGNSGVEEIKGHPFFE [R8Q] | 2.83 |
| FCIDSENRIGNSGVEEIKGHPFTE [F23T] | 1.46 |
| FCIDSENRIGNYGVEEIKGHPFFE [S12Y] | 1.99 |
| FCIDSENRIGNSWVEEIKGHPFFE [G13W] | 2.87 |
| FCIKSENRIGNSGVEEIKGHPFFE [D4K] | 2.83 |
| FCIDSETRIGNSGVEEIKGHPFFE [N7T] | 2.17 |
| FCIDSENRIGNSGVEEIKGHPFWE [F23W] | 2.02 |
| FCIDSENRIGGSGVEEIKGHPFFE [N11G] | 2.35 |
| FCIDSENRIQNSGVEEIKGHPFFE [G10Q] | 3.48 |
| FCIDDENRIGNSGVEEIKGHPFFE [S5D] | 2.61 |
| FCIDSENRIGNSGVEEIKKHPFFE [G19K] | 2.16 |
| FCIDSENFIGNSGVEEIKGHPFFE [R8F] | 2.45 |
| FCIDSENRIGNSGVEEGKGHPFFE [I17G] | 2.38 |
| FCIDSENRIGNSGVEENKGHPFFE [I17N] | 2.88 |
| FCIDSENRIGNSGVREIKGHPFFE [E15R] | 2.08 |
| FCIDHENRIGNSGVEEIKGHPFFE [S5H] | 2.5 |
| FCIDSENRIGNSGVEKIKGHPFFE [E16K] | 1.98 |
| FCIMSENRIGNSGVEEIKGHPFFE [D4M] | 2.86 |
| FCIDSENRIGNSGVEEIKGQPFFE [H20Q] | 3.48 |
| FCIDSENRIGNSGVEERKGHPFFE [I17R] | 2.1 |
| FCIDSENRIGNSGVEEIPGHPFFE [K18P] | 3.07 |
| FCIDSENRIGRSGVEEIKGHPFFE [N11R] | 2.31 |
| FCCDSENRIGNSGVEEIKGHPFFE [I3C] | 1.96 |
| FCIDIENRIGNSGVEEIKGHPFFE [S5I] | 2.44 |
| FCIYSENRIGNSGVEEIKGHPFFE [D4Y] | 2.07 |
| FCIDSENRIGSSGVEEIKGHPFFE [N11S] | 1.99 |
| FCIDSENRIGNSEVEEIKGHPFFE [G13E] | 3.12 |
| FCIDRENRIGNSGVEEIKGHPFFE [S5R] | 2.21 |
| FCIDSENRTGNSGVEEIKGHPFFE [I9T] | 3.21 |
| FCIDSENAIGNSGVEEIKGHPFFE [R8A] | 2.67 |
| FCWDSENRIGNSGVEEIKGHPFFE [I3W] | 2.19 |
| FCIDGENRIGNSGVEEIKGHPFFE [S5G] | 2.53 |
| FCIDSENRSGNSGVEEIKGHPFFE [I9S] | 2.82 |
| FCIDSINRIGNSGVEEIKGHPFFE [E6I] | 2.23 |
| FCIDSENRIGNSGVEEIKGHVFFE [P21V] | 2.28 |
| FCIDSENRIGNSGVEEIKGHPFFY [E24Y] | 1.69 |
| FCIDSENRIGNSGVEEIKGHPFFH [E24H] | 1.54 |
| FCITSENRIGNSGVEEIKGHPFFE [D4T] | 2.44 |
| FCIDSENRIGNSGVEEIKGHPFFA [E24A] | 1.92 |
| FCIDSDNRIGNSGVEEIKGHPFFE [E6D] | 1.91 |
| FCIDSCNRIGNSGVEEIKGHPFFE [E6C] | 1.77 |
| FCIDSENRQGNSGVEEIKGHPFFE [I9Q] | 2.65 |
| FCIDSELRIGNSGVEEIKGHPFFE [N7L] | 2.24 |
| FCIDSENRIDNSGVEEIKGHPFFE [G10D] | 2.75 |
| FCIDSENRIGNSGVEEIKGHGFFE [P21G] | 2.54 |
| FCIDSENRIGNSGVEEIKTHPFFE [G19T] | 2.19 |
| FCIDSENRIGNSGVEIIKGHPFFE [E16I] | 1.55 |
| FCIDSENRIGNSGVEEQKGHPFFE [I17Q] | 2.53 |
| FCIISENRIGNSGVEEIKGHPFFE [D4I] | 2.24 |
| FCIDSENRIGNSGVEQIKGHPFFE [E16Q] | 2.54 |
| FCIDSENRIGNSGVEEINGHPFFE [K18N] | 2.8 |
| FCVDSENRIGNSGVEEIKGHPFFE [I3V] | 3.26 |
| FIIDSENRIGNSGVEEIKGHPFFE [C2I] | 2.69 |
| FCIDSENRIGNSGVEEIKGHPFKE [F23K] | 2.19 |
| FCIDSGNRIGNSGVEEIKGHPFFE [E6G] | 1.98 |
| FCIDSENRIGNSGVEPIKGHPFFE [E16P] | 2.42 |
| FCIDSENRIGNWGVEEIKGHPFFE [S12W] | 1.5 |
| FCIDSENRLGNSGVEEIKGHPFFE [I9L] | 1.99 |
| FCIDSENRIGNSGKEEIKGHPFFE [V14K] | 2.72 |
| FCTDSENRIGNSGVEEIKGHPFFE [I3T] | 3.6 |
| FCIDSENRIGNSGVEEITGHPFFE [K18T] | 2.6 |
| FCIDSENKIGNSGVEEIKGHPFFE [R8K] | 2.37 |
| FCIDSENRIGNSDVEEIKGHPFFE [G13D] | 2.55 |
| FCIDSENRIGNSGDEEIKGHPFFE [V14D] | 2.68 |
| FCIDSENRIGNSGCEEIKGHPFFE [V14C] | 2.27 |
